# Tested on: Pseudomonas aeruginosa ATCC 27853
# EXPERIMENT NOTES: ≥ marks a high value that may be exact or a test limit, other limits are often not marked, values filed in µg/mL are converted to µM
TEST READOUT: MIC (µM)
Write the number in µM without appending the unit.

Check out these entries, answers already filled in.
Query: Could you tell me which MIC is on file for `CC(C)C[C@H](NC(=O)[C@H](CC(C)C)NC(=O)[C@H](CCCCN)NC(=O)[C@H](CCCCN)NC(=O)[C@H](CC(C)C)NC(=O)[C@H](CC(N)=O)NC(=O)[C@H](CCCCN)NC(=O)[C@H](CC(C)C)NC(=O)[C@@H](N)Cc1ccccc1)C(N)=O` ?
Result: 7.17

Query: Could you tell me which MIC is on file for `CC(C)C[C@H](NC(=O)[C@H](Cc1c[nH]c2ccccc12)NC(=O)[C@H](CCCCN)NC(=O)[C@H](CCCCN)NC(=O)[C@H](CC(C)C)NC(=O)[C@H](Cc1c[nH]c2ccccc12)NC(=O)[C@H](CCCCN)NC(=O)[C@H](CC(C)C)NC(=O)[C@@H](N)CC(C)C)C(=O)N[C@@H](CCCCN)C(=O)N[C@@H](CCCCN)C(N)=O` ?
Result: 13.5

Now, please, on to the next compound.
Query: Could you tell me which MIC is on file for `CC[C@H](C)[C@H](N)C(=O)N[C@@H](CC(C)C)C(=O)NCC(=O)N[C@@H](CCCCN)C(=O)N[C@@H](CC(C)C)C(=O)N[C@@H](CC(C)C)C(=O)N[C@@H](CO)C(=O)N[C@H](C(=O)N[C@@H](C)C(=O)N[C@@H](C)C(=O)NCC(=O)N[C@@H](CC(C)C)C(=O)N[C@@H](CC(C)C)C(=O)N[C@@H](CO)C(=O)N[C@@H](CC(N)=O)C(=O)N[C@@H](CC(C)C)C(N)=O)[C@@H](C)O` ?
Result: 256

----------
# Tested on: Bacillus cereus
TEST READOUT: MIC

Check out these entries, answers already filled in.
Query: Could you tell me which MIC is on file for `CC[C@H](C)[C@H](NC(=O)[C@H](CC(N)=O)NC(=O)[C@H](CCCCN)NC(=O)[C@@H](NC(=O)[C@@H](NC(=O)[C@H](CC(=O)O)NC(=O)[C@H](Cc1ccccc1)NC(=O)[C@H](CC(C)C)NC(=O)CN)[C@@H](C)CC)[C@@H](C)CC)C(=O)N[C@@H](Cc1ccccc1)C(=O)N[C@@H](CO)C(=O)NCC(=O)N[C@@H](CC(C)C)C(N)=O` ?
Result: ≥ 69.6 µM

Query: Could you tell me which MIC is on file for `CC[C@H](C)[C@H](NC(=O)[C@H](CC(=O)O)NC(=O)[C@H](Cc1ccccc1)NC(=O)[C@H](CC(C)C)NC(=O)CN)C(=O)N[C@H](C(=O)N[C@@H](CCCCN)C(=O)N[C@@H](CCCCN)C(=O)N[C@H](C(=O)N[C@H](C(=O)NCC(=O)N[C@H](C(=O)N[C@H](C(=O)N[C@@H](C)C(=O)NCC(=O)N[C@@H](CC(C)C)C(N)=O)[C@@H](C)CC)[C@@H](C)O)C(C)C)C(C)C)C(C)C` ?
Result: 15.3 µM

New cases:
Query: Could you tell me which MIC is on file for `CC[C@H](C)[C@H](NC(=O)[C@@H](NC(=O)[C@H](CO)NC(=O)[C@H](CCCCN)NC(=O)[C@H](C)NC(=O)[C@@H](NC(=O)[C@H](CCCCN)NC(=O)[C@@H](NC(=O)[C@@H](N)CO)C(C)C)C(C)C)C(C)C)C(=O)N1CCC[C@H]1C(=O)N[C@@H](CO)C(=O)N[C@@H](C)C(=O)N[C@H](C(=O)N[C@@H](Cc1ccccc1)C(=O)N[C@@H](C)C(=O)NCC(=O)NCC(=O)N[C@@H](CCCCN)C(=O)N[C@H](C(=O)N[C@@H](Cc1ccccc1)C(=O)O)C(C)C)C(C)C` ?
Result: ≥ 129 µM

Query: Could you tell me which MIC is on file for `CC[C@H](C)[C@H](NC(=O)[C@H](CC(C)C)NC(=O)[C@H](CO)NC(=O)[C@@H]1CCCN1C(=O)[C@@H](NC(=O)[C@@H](NC(=O)[C@H](CCCCN)NC(=O)[C@H](CO)NC(=O)[C@H](C)NC(=O)[C@@H](NC(=O)[C@H](CO)NC(=O)CNC(=O)[C@@H](NC(=O)[C@H](C)NC(=O)[C@@H](N)CO)C(C)C)C(C)C)C(C)C)C(C)C)C(=O)N[C@@H](CO)C(=O)N[C@@H](CCCCN)C(=O)N[C@H](C(=O)N[C@H](C(=O)N[C@@H](CCCCN)C(=O)O)[C@@H](C)O)C(C)C` ?
Result: ≥ 131 µM

Query: Could you tell me which MIC is on file for `CC[C@H](C)[C@H](NC(=O)[C@H](CCCCN)NC(=O)[C@@H](NC(=O)[C@@H](NC(=O)[C@@H](NC(=O)[C@H](CCC(N)=O)NC(=O)[C@H](C)NC(=O)CNC(=O)[C@H](CO)NC(=O)[C@H](CCCCN)NC(=O)[C@H](CCC(N)=O)NC(=O)[C@H](C)NC(=O)[C@H](CCCCN)NC(=O)[C@H](CCCCN)NC(=O)[C@H](C)N)[C@@H](C)O)[C@@H](C)CC)C(C)C)C(=O)N[C@@H](Cc1ccccc1)C(=O)N[C@@H](C)C(=O)N[C@@H](CCCCN)C(=O)NCC(=O)N[C@@H](CCSC)C(=O)O` ?
Result: ≥ 122 µM

Query: Could you tell me which MIC is on file for `CC(C)C[C@H](NC(=O)[C@@H](N)Cc1ccccc1)C(=O)NCC(=O)N[C@@H](CO)C(=O)N[C@H](C(=O)N[C@@H](Cc1ccccc1)C(=O)N[C@@H](CCCCN)C(=O)N[C@@H](CO)C(=O)N[C@@H](C)C(=O)N[C@@H](CO)C(=O)N[C@@H](CCCCN)C(=O)N[C@H](C(=O)N[C@@H](Cc1ccccc1)C(=O)N1CCC[C@H]1C(=O)N[C@@H](C)C(=O)N[C@H](C(=O)N[C@@H](Cc1ccccc1)C(=O)NCC(=O)N[C@@H](CCCCN)C(=O)N[C@H](C(=O)O)C(C)C)C(C)C)C(C)C)C(C)C` ?
Result: ≥ 121 µM

Query: Could you tell me which MIC is on file for `CC(C)C[C@H](NC(=O)[C@@H](N)Cc1ccccc1)C(=O)NCC(=O)N[C@@H](CCCCN)C(=O)N[C@H](C(=O)N[C@H](C(=O)N[C@@H](CCCCN)C(=O)N[C@@H](CCCCN)C(=O)N[C@@H](C)C(=O)N[C@@H](CO)C(=O)N[C@@H](CCCCN)C(=O)N[C@H](C(=O)N[C@@H](Cc1ccccc1)C(=O)N1CCC[C@H]1C(=O)N[C@@H](C)C(=O)N[C@H](C(=O)N[C@@H](Cc1ccccc1)C(=O)NCC(=O)N[C@@H](CCCCN)C(=O)N[C@H](C(=O)O)C(C)C)C(C)C)C(C)C)C(C)C)C(C)C` ?
Result: ≥ 59.5 µM

Query: Could you tell me which MIC is on file for `CC[C@H](C)[C@H](NC(=O)[C@@H]1CCCN1C(=O)[C@H](Cc1ccccc1)NC(=O)[C@@H](N)Cc1ccccc1)C(=O)N[C@H](C(=O)NCC(=O)N[C@@H](CCCCN)C(=O)N[C@@H](CC(C)C)C(=O)N[C@@H](CC(C)C)C(=O)N[C@@H](Cc1ccccc1)C(=O)NCC(=O)N[C@@H](CC(C)C)C(=O)N[C@@H](CC(C)C)C(N)=O)C(C)C` ?
Result: ≥ 51.2 µM

Query: Could you tell me which MIC is on file for `CC(C)C[C@H](NC(=O)[C@H](CCCCN)NC(=O)[C@H](Cc1ccccc1)NC(=O)[C@@H](NC(=O)[C@@H](NC(=O)CNC(=O)[C@H](CC(C)C)NC(=O)[C@@H](N)Cc1ccccc1)C(C)C)C(C)C)C(=O)N[C@@H](C)C(=O)N[C@@H](CO)C(=O)N[C@@H](CCCCN)C(=O)N[C@H](C(=O)N[C@@H](Cc1ccccc1)C(=O)N1CCC[C@H]1C(=O)N[C@@H](C)C(=O)N[C@H](C(=O)N[C@@H](Cc1ccccc1)C(=O)N[C@@H](CCCCN)C(=O)N[C@@H](CCCCN)C(=O)N[C@H](C(=O)O)C(C)C)C(C)C)C(C)C` ?
Result: 7.19 µM
